# test_summary: protein stability index of a GFP-peptide fusion (yeast GPS) (PSI 1-4); higher = more stable; sorted into four equal gates, so the index is relative within each strain
# reported_conditions: doa10∆
outcome_measure: protein stability index

[
  {
    "sequence_text": "AYKFEEVSKDLIAVYYS [RPB8]",
    "outcome_measure": "protein stability index",
    "measured": 2.94
  },
  {
    "sequence_text": "ELVTISWVQPRIISGDQ [RPN9]",
    "outcome_measure": "protein stability index",
    "measured": 2.44
  },
  {
    "sequence_text": "NDDKKTEPDKPAFSFNS [YJL041W/NSP1]",
    "outcome_measure": "protein stability index",
    "measured": 2.89
  },
  {
    "sequence_text": "HFFSKSCSFFAKLSDTL [NUT1]",
    "outcome_measure": "protein stability index",
    "measured": 2.06
  },
  {
    "sequence_text": "NGMFCQVPSSLIVRAKN [RRP4]",
    "outcome_measure": "protein stability index",
    "measured": 2.07
  },
  {
    "sequence_text": "EDFQKRQQKLLEDQQRQ [SWI1]",
    "outcome_measure": "protein stability index",
    "measured": 3.21
  },
  {
    "sequence_text": "KLSISNAASQQPTPRSA [GAL11]",
    "outcome_measure": "protein stability index",
    "measured": 2.57
  },
  {
    "sequence_text": "EDAKLKTDLELLVERLK [RPN1]",
    "outcome_measure": "protein stability index",
    "measured": 1.24
  },
  {
    "sequence_text": "NSFYYTSLLYLSTLEPS [RPN9]",
    "outcome_measure": "protein stability index",
    "measured": 1.82
  },
  {
    "sequence_text": "VNNCIWALKSSLNSMTN [RGR1]",
    "outcome_measure": "protein stability index",
    "measured": 2.71
  },
  {
    "sequence_text": "QRIIKELSIRFPQYKLT [ARP7]",
    "outcome_measure": "protein stability index",
    "measured": 1.9
  },
  {
    "sequence_text": "PEYGRIIASASYDKTVK [YGL100W/SEH1]",
    "outcome_measure": "protein stability index",
    "measured": 2.27
  },
  {
    "sequence_text": "NWYKSKKKAFTKYSAKY [RPL3]",
    "outcome_measure": "protein stability index",
    "measured": 3.23
  },
  {
    "sequence_text": "TPEYAAEKVKVRDELRK [UBP6]",
    "outcome_measure": "protein stability index",
    "measured": 1.28
  },
  {
    "sequence_text": "EYYVMMDFANLWVFQAF [SRB8]",
    "outcome_measure": "protein stability index",
    "measured": 2.37
  },
  {
    "sequence_text": "EKPAPVRTHMRNMIIVP [RPS15]",
    "outcome_measure": "protein stability index",
    "measured": 1.13
  },
  {
    "sequence_text": "ISSAKLDKFTDGGLFTL [QCR2]",
    "outcome_measure": "protein stability index",
    "measured": 2.42
  },
  {
    "sequence_text": "SIMVELKLPLEINYAFS [SIR3]",
    "outcome_measure": "protein stability index",
    "measured": 1.31
  },
  {
    "sequence_text": "RFNHLVTRLFFICSIIQ [YML031W/NDC1]",
    "outcome_measure": "protein stability index",
    "measured": 1.22
  },
  {
    "sequence_text": "LLIRKLPFQRLVREIAQ [HHT1]",
    "outcome_measure": "protein stability index",
    "measured": 1.29
  },
  {
    "sequence_text": "NQLTESASHFEQYTKKI [YJL041W/NSP1]",
    "outcome_measure": "protein stability index",
    "measured": 2.28
  },
  {
    "sequence_text": "NVAHRIKEDIKKQPSIL [SNF2]",
    "outcome_measure": "protein stability index",
    "measured": 2.9
  },
  {
    "sequence_text": "DNEVQRTMLELITQLDG [RPT1]",
    "outcome_measure": "protein stability index",
    "measured": 2.55
  },
  {
    "sequence_text": "TLDVEAFKSVVSTETFE [RPL27A]",
    "outcome_measure": "protein stability index",
    "measured": 2.4
  },
  {
    "sequence_text": "KNVRTRIKLATTSERVS [RRI1]",
    "outcome_measure": "protein stability index",
    "measured": 2.6
  },
  {
    "sequence_text": "EYALPKTYNKLHYCVSC [RPS26A]",
    "outcome_measure": "protein stability index",
    "measured": 1.24
  }
]
